Form field: IC50 (one value per entry).
Biological target: Tyrosine-protein kinase BTK (Homo sapiens)
Sequence (Q06187 whole entry): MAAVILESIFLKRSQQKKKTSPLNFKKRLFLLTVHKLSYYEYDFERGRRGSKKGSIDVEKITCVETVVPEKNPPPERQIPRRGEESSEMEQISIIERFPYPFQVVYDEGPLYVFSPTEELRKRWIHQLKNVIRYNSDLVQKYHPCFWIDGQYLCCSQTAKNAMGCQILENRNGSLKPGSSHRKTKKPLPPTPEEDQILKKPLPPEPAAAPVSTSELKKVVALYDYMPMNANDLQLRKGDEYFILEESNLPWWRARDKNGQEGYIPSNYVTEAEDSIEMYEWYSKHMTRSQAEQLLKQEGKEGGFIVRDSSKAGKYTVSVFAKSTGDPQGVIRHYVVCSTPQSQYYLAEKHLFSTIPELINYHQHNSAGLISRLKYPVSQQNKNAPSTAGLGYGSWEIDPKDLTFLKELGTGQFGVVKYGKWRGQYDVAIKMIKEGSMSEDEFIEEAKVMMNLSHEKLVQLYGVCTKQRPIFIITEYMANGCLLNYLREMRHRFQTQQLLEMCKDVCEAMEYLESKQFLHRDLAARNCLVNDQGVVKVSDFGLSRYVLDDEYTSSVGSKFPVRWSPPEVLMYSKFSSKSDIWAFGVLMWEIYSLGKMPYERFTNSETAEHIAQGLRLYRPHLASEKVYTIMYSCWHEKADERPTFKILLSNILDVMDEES
Assay: Inhibition of BTK in human PBMC
The response must be a number in nM with no trailing unit.

These solved cases illustrate the format of a correct answer.
{"SUBSTANCE SMILES": "Nc1nccn2c1c(-c1ccc(C(=O)Nc3cc(C(F)(F)F)ccn3)cc1)nc2[C@]12CC[C@](C(=O)O)(CC1)C2", "STUDY SYSTEM": "Tyrosine-protein kinase BTK (Homo sapiens)", "ENDPOINT VALUE": 9}
{"SUBSTANCE SMILES": "C[C@]1(C(=O)O)CCC[C@@](C)(c2nc(-c3ccc(C(=O)Nc4cc(C(F)(F)F)ccn4)cc3)c3c(N)nccn23)C1", "STUDY SYSTEM": "Tyrosine-protein kinase BTK (Homo sapiens)", "ENDPOINT VALUE": 18}
{"SUBSTANCE SMILES": "C[C@]1(C(=O)O)CC[C@@](C)(c2nc(-c3ccc(C(=O)Nc4cc(C(F)(F)F)ccn4)cc3)c3c(N)nccn23)C1", "STUDY SYSTEM": "Tyrosine-protein kinase BTK (Homo sapiens)", "ENDPOINT VALUE": 8}
{"SUBSTANCE SMILES": "Nc1nccn2c(C34CC(C(=O)O)(C3)C4)nc(-c3ccc(C(=O)Nc4cc(C(F)(F)F)ccn4)cc3)c12", "STUDY SYSTEM": "Tyrosine-protein kinase BTK (Homo sapiens)", "ENDPOINT VALUE": 67}
{"SUBSTANCE SMILES": "Nc1nccn2c1c(-c1ccc(C(=O)Nc3cc(C(F)(F)F)ccn3)cc1)nc2[C@]12CCC[C@](C(=O)O)(CC1)CC2", "STUDY SYSTEM": "Tyrosine-protein kinase BTK (Homo sapiens)", "ENDPOINT VALUE": 6}

GET /values?readout=IC50&item= `C[C@]1(C(=O)O)CC[C@@](C)(c2nc(-c3ccc(C(=O)Nc4cc(C(F)(F)F)ccn4)cc3)c3c(N)nccn32)CC1`
17

Try `Nc1nccn2c(C34CCC(C(=O)O)(CC3)CC4)nc(-c3ccc(C(=O)Nc4cc(C(F)(F)F)ccn4)cc3)c12` next.
5

Same again, this time with `CC(C)[C@@]1(C(=O)O)CC[C@@](C)(c2nc(-c3ccc(C(=O)Nc4cc(C(F)(F)F)ccn4)cc3)c3c(N)nccn23)C1`
20

====

Experiment: Oral bioavailability in dog
Assay type: ADME, organism-based, Canis lupus familiaris
Details: in vivo
READOUT LABEL: bioavailability (%)
Give just the numeric value; % need not be written.

Need bioavailability of `C[C@]1(C(=O)O)CC[C@@](C)(c2nc(-c3ccc(C(=O)Nc4cc(C(F)(F)F)ccn4)cc3)c3c(N)nccn32)CC1` , thanks.
77

====

Listed next: entries and their corresponding pIC50.
Molecular target: UniProtKB Q06187
Test: Inhibition of 6-His-tagged recombinant full length BTK (unknown origin) expressed in baculovirus-transfected Sf9 cells using Biotin-EQEDEPEGDYFEWLE-NH2 as substrate preincubated for 60 mins followed by substrate addition measured after 120 mins by LANCE TR-FRET assay
Just so you know, pIC50 here is -log10 of the concentration in molar units; reply with that number alone.

Before answering, review these 7 worked examples.
{"SUBSTANCE SMILES": "C[C@]1(C(=O)O)CCC[C@@](C)(c2nc(-c3ccc(C(=O)Nc4cc(C(F)(F)F)ccn4)cc3)c3c(N)nccn23)C1", "STUDY SYSTEM": "UniProtKB Q06187", "pIC50": 10.00}
{"SUBSTANCE SMILES": "Nc1nccn2c(C34CCC(C(=O)O)(CC3)CC4)nc(-c3ccc(C(=O)Nc4cc(C(F)(F)F)ccn4)cc3)c12", "STUDY SYSTEM": "UniProtKB Q06187", "pIC50": 9.70}
{"SUBSTANCE SMILES": "C[C@]1(C(=O)O)CC[C@@](C)(c2nc(-c3ccc(C(=O)Nc4cc(C(F)(F)F)ccn4)cc3)c3c(N)nccn32)CC1", "STUDY SYSTEM": "UniProtKB Q06187", "pIC50": 9.00}
{"SUBSTANCE SMILES": "Nc1nccn2c1c(-c1ccc(C(=O)Nc3cc(C(F)(F)F)ccn3)cc1)nc2[C@]12CC[C@](C(=O)O)(CC1)C2", "STUDY SYSTEM": "UniProtKB Q06187", "pIC50": 9.70}
{"SUBSTANCE SMILES": "C[C@]1(C(=O)O)CC[C@@](C)(c2nc(-c3ccc(C(=O)Nc4cc(C(F)(F)F)ccn4)cc3)c3c(N)nccn23)C1", "STUDY SYSTEM": "UniProtKB Q06187", "pIC50": 9.70}
{"SUBSTANCE SMILES": "Nc1nccn2c1c(-c1ccc(C(=O)Nc3cc(C(F)(F)F)ccn3)cc1)nc2[C@]12CCC[C@](C(=O)O)(CC1)CC2", "STUDY SYSTEM": "UniProtKB Q06187", "pIC50": 9.52}
{"SUBSTANCE SMILES": "CC(C)[C@@]1(C(=O)O)CC[C@@](C)(c2nc(-c3ccc(C(=O)Nc4cc(C(F)(F)F)ccn4)cc3)c3c(N)nccn23)C1", "STUDY SYSTEM": "UniProtKB Q06187", "pIC50": 9.40}

Hi! What's the reported pIC50 for `Nc1nccn2c(C34CC(C(=O)O)(C3)C4)nc(-c3ccc(C(=O)Nc4cc(C(F)(F)F)ccn4)cc3)c12` on UniProtKB Q06187?
9.40

====

Assay: Oral bioavailability in rat
Type: ADME, organism-based
Details: in vivo
Returns one of True or False; True when bioavailability is >= 40%.

Check out these entries, answers already filled in.
{"SUBSTANCE SMILES": "Nc1nccn2c([C@@H]3CCC[C@H](C(=O)O)C3)nc(-c3ccc(C(=O)Nc4cc(C(F)(F)F)ccn4)cc3)c12", "QUALITATIVE LABEL": "False"}
{"SUBSTANCE SMILES": "CCOc1cc(C(=O)Nc2cc(C(F)(F)F)ccn2)ccc1-c1nc(C23CCC(C(=O)O)(CC2)CC3)n2ccnc(N)c12", "QUALITATIVE LABEL": "False"}
{"SUBSTANCE SMILES": "C[C@]1(C(=O)O)CCC[C@@](C)(c2nc(-c3ccc(C(=O)Nc4cc(C(F)(F)F)ccn4)cc3)c3c(N)nccn23)C1", "QUALITATIVE LABEL": "False"}
{"SUBSTANCE SMILES": "C[C@]1(C(=O)O)CC[C@@](C)(c2nc(-c3ccc(C(=O)Nc4cc(C(F)(F)F)ccn4)cc3)c3c(N)nccn32)CC1", "QUALITATIVE LABEL": "True"}

Now for a further molecule.
Does `CC(C)[C@@]1(C(=O)O)CC[C@@](C)(c2nc(-c3ccc(C(=O)Nc4cc(C(F)(F)F)ccn4)cc3)c3c(N)nccn23)C1` have a reported bioavailability of at least 40%?
True

====

Quick reference for Inhibitory concentration among some compounds
Tested on: HeLa
Assay: Inhibition of [3H]-adenosine uptake in human HeLa cells preincubated for 30 mins followed by [3H]-adenosine addition measured after 60 mins by PMT-based radiometric detection method
Assay type: cell-based
Conditions: 1 h
Number in nM, nothing else.

Please review the entries below; each comes with its answer.
{"COMPOUND": "Nc1nccn2c([C@H]3C[C@@H]4[C@H](C3)[C@H]4C(=O)O)nc(-c3ccc(C(=O)Nc4cc(C(F)(F)F)ccn4)cc3)c12", "RESULT UNITS": "nM", "ENDPOINT VALUE": 1927}
{"COMPOUND": "CC1(C(=O)O)CCC(c2nc(-c3ccc(C(=O)Nc4cc(C(F)(F)F)ccn4)cc3)c3c(N)nccn23)CC1 (stereo not drawn)", "RESULT UNITS": "nM", "ENDPOINT VALUE": 2492}
{"COMPOUND": "C[C@]1(C(=O)O)CC[C@@](C)(c2nc(-c3ccc(C(=O)Nc4cc(C(F)(F)F)ccn4)cc3)c3c(N)nccn23)C1", "RESULT UNITS": "nM", "ENDPOINT VALUE": 1699}

Which Inhibitory concentration is reported with HeLa for this entry: `CC(C)[C@@]1(C(=O)O)CC[C@@](C)(c2nc(-c3ccc(C(=O)Nc4cc(C(F)(F)F)ccn4)cc3)c3c(N)nccn23)C1` ?
4010

Next record, please: `Nc1nccn2c1c(-c1ccc(C(=O)Nc3cc(C(F)(F)F)ccn3)cc1)nc2[C@]12CCC[C@](C(=O)O)(CC1)CC2`
274

Likewise for `Nc1nccn2c([C@@H]3CCC[C@H](c4noc(=O)[nH]4)C3)nc(-c3ccc(C(=O)Nc4cc(C(F)(F)F)ccn4)cc3)c12` ?
9086

Queued: Nc1nccn2c(C34C5C6C3C3C4C5C63C(=O)O)nc(-c3ccc(C(=O)Nc4cc(C(F)(F)F)ccn4)cc3F)c12 (stereo not drawn)
812

Consider next the compound `Cn1nnnc1[C@H]1CCC[C@@H](c2nc(-c3ccc(C(=O)Nc4cc(C(F)(F)F)ccn4)cc3)c3c(N)nccn23)C1` in the same way.
155

Please give the result for `Nc1nccn2c(C34CC(C(=O)O)(C3)C4)nc(-c3ccc(C(=O)Nc4cc(C(F)(F)F)ccn4)cc3)c12` too.
6476
